B1: ZNF263 (parent)
chain: VPGTQVGQGGKLWDPSVQSCKEGL

- Variants of: B1
- method description: protein stability index of a GFP-peptide fusion (GPS, HEK-293T) (PSI 1-6); higher = more stable;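 further: lentivirally expressed fusions sorted by FACS into six bins by GFP to DsRed ratio, PSI derived from sequencing read proportions per bin multiplied by bin number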
- stated conditions: c terminus: a fixed tail appended
protein stability index values, listed per item
experimental readout: protein stability index

# mutant designation, test result
data = [
    ("Q8M", 3.97),
    ("E22C", 3.42),
    ("G10S", 4.48),
    ("G23Y", 2.96),
    ("L12P", 5.07),
    ("S19L", 4.04),
    ("V1F", 1.64),
    ("W13V", 4.88),
    ("Q5Y", 3.25),
    ("K21R", 4.04),
    ("K21F", 3.27),
    ("G23M", 3.88),
    ("W13Y", 4.57),
    ("Q18L", 3.97),
    ("P15K", 4.23),
    ("G10K", 4.5),
    ("E22M", 3.13),
    ("S16H", 4.27),
    ("L12H", 4.45),
    ("G9H", 4.34),
    ("S19R", 3.89),
    ("Q5E", 3.94),
    ("P15M", 3.54),
    ("L24W", 4.32),
    ("P2A", 4.17),
    ("C20P", 4.33),
    ("K11D", 4.63),
    ("P2W", 3.12),
    ("G3N", 4.3),
    ("K11M", 4.56),
    ("T4A", 4.55),
    ("L24F", 4.11),
    ("C20L", 4.05),
    ("P2E", 4.25),
    ("S16D", 4.93),
    ("V1T", 4.63),
    ("E22K", 4.49),
    ("L12D", 4.89),
    ("V6W", 3.36),
    ("E22R", 4.05),
    ("S19A", 4.35),
    ("Q5C", 4.04),
    ("P2I", 3.19),
    ("S16M", 3.92),
    ("V1Q", 4.51),
    ("E22I", 3.23),
]
